test_system: integrin α4β7 on α4β7+ memory T helper cells (Homo sapiens, UniProt P13612+P26010)
Construct: endogenous in cells
experiment_description: MAdCAM-1 competition / receptor occupancy assay in human whole blood, α4β7-positive Th memory cells
Assay type: cell-based
reported_conditions: human whole blood, inhibition of MAdCAM-1 binding to α4β7-positive Th memory cells, FACS; read-out: MADCAM FACS α4β7 Th mem
result_type: pIC50
Scale explanation: pIC50 corresponds to minus log10 of a concentration expressed in moles per litre.

CC(C)C[C@@H]1NC(=O)[C@H]2Cc3ccccc3CN2C(=O)[C@H](Cc2cccc(CNC(=O)CCCCCC(=O)NCc3cccc(C[C@@H]4NC(=O)[C@@H]5CCCN5[C@H](C(=O)NC(C)(C)C)[C@H](C)NC(=O)[C@H]([C@@H](C)O)NC(=O)[C@H](CC(=O)O)NC(=O)[C@H](CC(C)C)NC(=O)[C@H]5Cc6ccccc6CN5C4=O)c3)c2)NC(=O)[C@@H]2CCCN2[C@H](C(=O)NC(C)(C)C)[C@H](C)NC(=O)[C@H]([C@@H](C)O)NC(=O)[C@H](CC(=O)O)NC1=O | 6.90

Here is another compound to look at.
Name the reported pIC50 value associated with the compound CC(C)C[C@@H]1NC(=O)c2ccc(-c3ccc(N4CCN(C(=O)c5cc(F)ccc5-c5ccc(F)cc5C(=O)N5CCN(c6ccc(-c7ccc8cc7CNC(=O)[C@@H]7CCCN7[C@H](C(=O)NC(C)(C)C)[C@H](C)NC(=O)[C@H]([C@@H](C)O)NC(=O)[C@H](CC(=O)O)NC(=O)[C@H](CC(C)C)NC8=O)cc6)CC5)CC4)cc3)c(c2)CNC(=O)[C@@H]2CCCN2[C@H](C(=O)NC(C)(C)C)[C@H](C)NC(=O)[C@H]([C@@H](C)O)NC(=O)[C@H](CC(=O)O)NC1=O
7.13

====

test_system: integrin α4β7 (RPMI8866 human cells adhering to MAdCAM-1) (Homo sapiens, UniProt P13612+P26010)
Construct: RMP18866 cells, which express integrin α4β7; host or cells: RPMI8866
experiment_description: Integrin α4β7-MAdCAM cell adhesion assay (RPMI8866 cells)
Assay type: cell-based
reported_conditions: RPMI8866 cells adhering to MAdCAM; read-out: RPMI8866 Adhesion α4β7/MAdCAM IC50
result_type: IC50 (nM)
Provide only the numeric value, understood in nM.

Suppose we examine the compound CC(C)C[C@@H]1NC(=O)c2ccc(-c3ccc(N4CCN(C(=O)CCOCCOCCNC(=O)CCCCCC(=O)NCCOCCOCCC(=O)N5CCN(c6ccc(-c7ccc8cc7CNC(=O)[C@@H]7CCCN7[C@H](C(=O)NC(C)(C)C)[C@H](C)NC(=O)[C@H]([C@@H](C)O)NC(=O)[C@H](CC(=O)O)NC(=O)[C@H](CC(C)C)NC8=O)cc6)CC5)CC4)cc3)c(c2)CNC(=O)[C@@H]2CCCN2[C@H](C(=O)NC(C)(C)C)[C@H](C)NC(=O)[C@H]([C@@H](C)O)NC(=O)[C@H](CC(=O)O)NC1=O ; what IC50 value has been reported?
59

====

test_system: recombinant integrin α4β7 (Homo sapiens, UniProt P13612+P26010, DEL724-798)
Construct: purchased R&D Systems 5397-A3-050
experiment_description: Integrin α4β7—MAdCAM-1 ELISA competition assay
Assay type: binding
reported_conditions: ratio of a4b1 to a4b7 ELISA IC50
Threshold 4: ELISA Assay Ratio b1/b7 strictly smaller gives fulfilled, otherwise not fulfilled.

# count of solved cases: 5
C[C@@H]1NC(=O)[C@H]([C@@H](C)O)NC(=O)[C@H](CC(=O)O)NC(=O)[C@H](CC(C)(C)C)NC(=O)[C@H]2CCCCN2C(=O)[C@H](Cc2ccc(O)cc2)NC(=O)[C@@H]2CCCN2[C@@H]1C(=O)NC(C)(C)C | not fulfilled
CCC[C@@H]1NC(=O)[C@@H]2CCCN2[C@H](C(=O)NC(C)(C)C)[C@H](C)NC(=O)[C@H]([C@@H](C)O)NC(=O)[C@H](CC(=O)O)NC(=O)[C@H](CC(C)C)NC1=O | not fulfilled
CC(C)C[C@@H]1NC(=O)[C@H](Cc2csc(-c3ccccn3)n2)NC(=O)[C@@H]2CCCN2[C@H](C(=O)NC(C)(C)C)[C@H](C)NC(=O)[C@H]([C@@H](C)O)NC(=O)[C@H](CC(=O)O)NC1=O | fulfilled
CO[C@H](C)[C@@H]1NC(=O)[C@H](CC(=O)O)NC(=O)[C@H](CC(C)C)NC(=O)[C@H](Cc2ccccc2)NC(=O)[C@@H]2CCCN2[C@H](C(=O)NC(C)(C)C)[C@H](C)NC1=O | fulfilled
CC(C)C[C@@H]1NC(=O)c2cc(cc(-c3ccncc3)c2)CNC(=O)[C@@H]2CCCN2[C@H](C(=O)NC(C)(C)C)[C@H](C)NC(=O)[C@H]([C@@H](C)O)NC(=O)[C@H](CC(=O)O)NC1=O | not fulfilled

Quick check: does CC(C)C[C@@H]1NC(=O)C[C@H](CCCCN)NC(=O)C2(CCNCC2)NC(=O)[C@@H]2CCCN2[C@H](C(=O)NC(C)(C)C)[C@H](C)NC(=O)[C@H]([C@@H](C)O)NC(=O)[C@H](CC(=O)O)NC1=O have ELISA Assay Ratio b1/b7 under 4?
not fulfilled

Is ELISA Assay Ratio b1/b7 of COc1ccc(-c2ccccc2C[C@@H]2NC(=O)[C@@H]3CCCN3[C@H](C(=O)NC(C)(C)C)[C@H](C)NC(=O)[C@H]([C@@H](C)O)NC(=O)[C@H](CC(=O)O)NC(=O)[C@H](CC(C)C)NC(=O)[C@H]3CCCCN3C2=O)cc1 strictly below 4?
not fulfilled

====

test_system: recombinant integrin α4β1 (Homo sapiens, UniProt P05556+P13612)
Construct: purchased R&D Systems 5397-A3-050
experiment_description: Integrin α4β1—VCAM-1 competition ELISA
Type: binding
reported_conditions: read-out: ELISA α4β1 Assay IC50
Description: Integrin α4β1—VCAM-1 Competition ELISA The plate was incubated at 4° C. overnight. […] The plate was then incubated for 1 hour at room temperature. The plate was washed three times with wash buffer (50 mM Tris, 100 mM NaCl, 1 mM MnCl2, 0.05% Tween). To each well, 50 μl of compound diluted in assay buffer was added by transfer from a compound serial dilution plate. […] The plate was incubated at room temperature with shaking (300 rpm) for 2 hours to reach binding equilibrium. […]
result_type: IC50 (nM)
Lab book: enter the figure in nM, no units written.

Consider the molecule shown here: CC(C)C[C@@H]1NC(=O)c2ccc(-c3ccc(N4CCN(c5ncc([N+](=O)[O-])c(N6CCN(c7ccc(-c8ccc9cc8CNC(=O)[C@@H]8CCCN8[C@H](C(=O)NC(C)(C)C)[C@H](C)NC(=O)[C@H]([C@@H](C)O)NC(=O)[C@H](CC(=O)O)NC(=O)[C@H](CC(C)C)NC9=O)cc7)CC6)n5)CC4)cc3)c(c2)CNC(=O)[C@@H]2CCCN2[C@H](C(=O)NC(C)(C)C)[C@H](C)NC(=O)[C@H]([C@@H](C)O)NC(=O)[C@H](CC(=O)O)NC1=O What is its recorded IC50?
10

====

compounds and their reported IC50
test_system: recombinant integrin α4β7 (Homo sapiens, UniProt P13612+P26010, DEL724-798)
Construct: purchased R&D Systems 5397-A3-050
Sequence (P13612 34-970 limits assumed): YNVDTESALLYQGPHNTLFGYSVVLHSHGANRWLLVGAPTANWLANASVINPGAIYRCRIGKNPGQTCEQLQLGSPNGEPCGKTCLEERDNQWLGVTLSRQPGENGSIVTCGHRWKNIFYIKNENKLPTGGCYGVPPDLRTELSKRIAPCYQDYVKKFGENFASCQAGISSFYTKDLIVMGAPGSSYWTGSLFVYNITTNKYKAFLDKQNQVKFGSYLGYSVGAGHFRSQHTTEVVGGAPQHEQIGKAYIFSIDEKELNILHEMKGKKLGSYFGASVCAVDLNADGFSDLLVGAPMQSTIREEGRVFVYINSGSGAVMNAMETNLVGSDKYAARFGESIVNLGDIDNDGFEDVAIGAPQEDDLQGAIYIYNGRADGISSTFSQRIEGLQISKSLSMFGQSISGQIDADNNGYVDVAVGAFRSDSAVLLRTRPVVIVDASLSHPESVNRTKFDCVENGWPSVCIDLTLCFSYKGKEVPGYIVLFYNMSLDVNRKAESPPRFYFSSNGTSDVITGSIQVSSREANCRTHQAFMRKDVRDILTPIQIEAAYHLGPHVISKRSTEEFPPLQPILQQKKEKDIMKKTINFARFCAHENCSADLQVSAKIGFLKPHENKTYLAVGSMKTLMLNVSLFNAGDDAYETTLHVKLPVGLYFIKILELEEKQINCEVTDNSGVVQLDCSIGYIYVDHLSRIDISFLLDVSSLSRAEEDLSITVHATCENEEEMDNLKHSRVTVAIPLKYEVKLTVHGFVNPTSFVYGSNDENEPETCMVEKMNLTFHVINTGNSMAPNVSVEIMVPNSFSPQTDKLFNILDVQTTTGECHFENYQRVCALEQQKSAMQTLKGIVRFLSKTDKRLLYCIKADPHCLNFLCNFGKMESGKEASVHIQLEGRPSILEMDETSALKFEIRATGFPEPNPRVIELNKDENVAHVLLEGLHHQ
Sequence (P26010 20-723 limits assumed): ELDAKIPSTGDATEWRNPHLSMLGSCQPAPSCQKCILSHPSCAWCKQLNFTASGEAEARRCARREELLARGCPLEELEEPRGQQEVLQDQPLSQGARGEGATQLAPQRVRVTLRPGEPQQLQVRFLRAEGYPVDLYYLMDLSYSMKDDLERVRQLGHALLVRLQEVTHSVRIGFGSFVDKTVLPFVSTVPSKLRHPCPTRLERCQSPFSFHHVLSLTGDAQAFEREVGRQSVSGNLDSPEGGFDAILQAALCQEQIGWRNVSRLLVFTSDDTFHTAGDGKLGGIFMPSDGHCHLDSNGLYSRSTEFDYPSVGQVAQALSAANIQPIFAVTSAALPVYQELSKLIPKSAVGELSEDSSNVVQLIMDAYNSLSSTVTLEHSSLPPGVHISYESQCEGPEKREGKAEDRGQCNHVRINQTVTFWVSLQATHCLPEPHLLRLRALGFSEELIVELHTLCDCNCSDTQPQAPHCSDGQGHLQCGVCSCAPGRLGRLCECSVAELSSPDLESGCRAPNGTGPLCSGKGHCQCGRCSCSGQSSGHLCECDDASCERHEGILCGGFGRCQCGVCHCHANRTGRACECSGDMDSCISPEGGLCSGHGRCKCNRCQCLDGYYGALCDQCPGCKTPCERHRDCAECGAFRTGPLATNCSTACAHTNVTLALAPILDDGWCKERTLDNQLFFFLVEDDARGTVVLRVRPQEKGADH
experiment_description: Integrin α4β7—MAdCAM-1 ELISA competition assay
Assay type: binding
reported_conditions: read-out: ELISA α4β7 Assay IC50
Response body: numeric value in nM, unit text excluded.

Known IC50 results, listed for orientation:
CC(C)C[C@@H]1NC(=O)c2ccc(-c3ccc(N4CCN(C(=O)COCC(=O)N5CCN(c6ccc(-c7ccc8cc7CNC(=O)[C@@H]7CCCN7[C@H](C(=O)NC(C)(C)C)[C@H](C)NC(=O)[C@H]([C@@H](C)O)NC(=O)[C@H](CC(=O)O)NC(=O)[C@H](CC(C)C)NC8=O)cc6)CC5)CC4)cc3)c(c2)CNC(=O)[C@@H]2CCCN2[C@H](C(=O)NC(C)(C)C)[C@H](C)NC(=O)[C@H]([C@@H](C)O)NC(=O)[C@H](CC(=O)O)NC1=O | 8.3
CC(C)C[C@@H]1NC(=O)c2ccc(-c3ccc(N4CCN(C(=O)c5cc(-c6ccccc6)c(C(=O)N6CCN(c7ccc(-c8ccc9cc8CNC(=O)[C@@H]8CCCN8[C@H](C(=O)NC(C)(C)C)[C@H](C)NC(=O)[C@H]([C@@H](C)O)NC(=O)[C@H](CC(=O)O)NC(=O)[C@H](CC(C)C)NC9=O)cc7)CC6)cc5-c5ccccc5)CC4)cc3)c(c2)CNC(=O)[C@@H]2CCCN2[C@H](C(=O)NC(C)(C)C)[C@H](C)NC(=O)[C@H]([C@@H](C)O)NC(=O)[C@H](CC(=O)O)NC1=O | 36
CC(C)C[C@@H]1NC(=O)c2ccc(-c3ccc(N4CCN(C(=O)CCOCCOCCNC(=O)CCCCCC(=O)NCCOCCOCCC(=O)N5CCN(c6ccc(-c7ccc8cc7CNC(=O)[C@@H]7CCCN7[C@H](C(=O)NC(C)(C)C)[C@H](C)NC(=O)[C@H]([C@@H](C)O)NC(=O)[C@H](CC(=O)O)NC(=O)[C@H](CC(C)C)NC8=O)cc6)CC5)CC4)cc3)c(c2)CNC(=O)[C@@H]2CCCN2[C@H](C(=O)NC(C)(C)C)[C@H](C)NC(=O)[C@H]([C@@H](C)O)NC(=O)[C@H](CC(=O)O)NC1=O | 19
CC(C)C[C@@H]1NC(=O)c2ccc(-c3ccc(N4CCN(C(=O)CCC(=O)N5CCN(c6ccc(-c7ccc8cc7CNC(=O)[C@@H]7CCCN7[C@H](C(=O)NC(C)(C)C)[C@H](C)NC(=O)[C@H]([C@@H](C)O)NC(=O)[C@H](CC(=O)O)NC(=O)[C@H](CC(C)C)NC8=O)cc6)CC5)CC4)cc3)c(c2)CNC(=O)[C@@H]2CCCN2[C@H](C(=O)NC(C)(C)C)[C@H](C)NC(=O)[C@H]([C@@H](C)O)NC(=O)[C@H](CC(=O)O)NC1=O | 5.6

Which IC50 is reported for this compound? CC(C)C[C@@H]1NC(=O)c2ccc(-c3ccc(N4CCN(C(=O)c5ccc(C(=O)N6CCN(c7ccc(-c8ccc9cc8CNC(=O)[C@@H]8CCCN8[C@H](C(=O)NC(C)(C)C)[C@H](C)NC(=O)[C@H]([C@@H](C)O)NC(=O)[C@H](CC(=O)O)NC(=O)[C@H](CC(C)C)NC9=O)cc7)CC6)s5)CC4)cc3)c(c2)CNC(=O)[C@@H]2CCCN2[C@H](C(=O)NC(C)(C)C)[C@H](C)NC(=O)[C@H]([C@@H](C)O)NC(=O)[C@H](CC(=O)O)NC1=O
5.4
